Listed below: molar heat capacity at constant pressure values for each entry.
- assay.notes: molar heat capacity at constant pressure
- reported.conditions: 296.65 K; 101.33 kPa; Liquid
The reply should be a number in J/K/mol, with the unit left off.

Field: example entries. Status: answers known.
> print(dat)
   molecular.string  endpoint.value
1          CCCCCCCl          216.12
2          CCCCCCBr          219.26
3           CCCCCCl          187.66

q: Fill in the blank: the reported molar heat capacity at constant pressure of `CCCCCCCCl` is ____.
a: 245.23

q: Would you mind doing `CCCCCCCCCCCl` as well?
a: 334.13

q: Would you mind doing `CCCCCCCCCCBr` as well?
a: 338.2

q: Would you mind doing `CCCCCCCCCBr` as well?
a: 307.68

q: Would you mind doing `CCCCCl` as well?
a: 158.86

q: Would you mind doing `CCCCBr` as well?
a: 162.08
